assay system: pooled human IgG
observation type: Enzyme Activity Endpoint Assay (purified): scIgG
Form field: result (number plus unit)

The protein PRT-233 (protein) MEVVEVWPYGQNPNGKTEILSQTEDSESLQRLRDIEDFQAEKKMQNVVYTKWLDGVDVKDHDFRKIVDGNIAYYATPLLNGRGFYDINKDFNRDSDKCAAAVAANMFHYWLDRNRDNVDRFLRQNPEKHGIIELPDGQLKLSDFLNTYESDHGYRDKSKLFDFISNNFNGPVWTDKLLDNYINGYAYNYKYGRTIEDPTKNTSKINFFKEVFNEKILTNNHSIRNQNEFSVLLSEALYTGKAIGLSYGPAGLRHSLGHIISVWGADLDADGNVVAIYVTDSDDKKLTIGDERVGLKRYKISTDDENRLRLTAYEETHNTGGQIRGLWTLDTGKYAWADYFDKTEQTGTDQAEQLEHHHHHH showed Enzyme Activity Endpoint Assay (purified): scIgG equal to 415 ng/µL
